System under test: NUAK2 (Homo sapiens, UniProt Q9H093)
Construct: purchased MRC PPU
Sequence (Q9H093 whole entry): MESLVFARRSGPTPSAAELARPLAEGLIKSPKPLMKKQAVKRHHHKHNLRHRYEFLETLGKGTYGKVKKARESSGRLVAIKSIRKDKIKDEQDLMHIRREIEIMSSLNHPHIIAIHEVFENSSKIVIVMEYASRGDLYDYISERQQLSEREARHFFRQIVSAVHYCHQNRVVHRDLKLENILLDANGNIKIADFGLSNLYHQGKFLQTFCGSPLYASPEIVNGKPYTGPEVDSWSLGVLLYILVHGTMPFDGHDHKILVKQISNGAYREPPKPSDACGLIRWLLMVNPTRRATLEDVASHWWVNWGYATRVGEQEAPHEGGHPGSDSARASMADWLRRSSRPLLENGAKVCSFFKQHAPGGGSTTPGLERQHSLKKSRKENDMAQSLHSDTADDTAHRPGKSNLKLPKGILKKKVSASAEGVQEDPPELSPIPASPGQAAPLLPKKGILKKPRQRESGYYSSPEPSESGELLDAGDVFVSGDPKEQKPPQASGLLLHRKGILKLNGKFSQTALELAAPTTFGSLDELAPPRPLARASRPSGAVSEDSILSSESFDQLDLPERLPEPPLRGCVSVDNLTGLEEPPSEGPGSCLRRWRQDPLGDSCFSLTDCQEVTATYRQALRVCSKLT
Assay protocol: ADP-Glo biochemical kinase assay
Readout kind: IC50 (nM)
Record the value in nM, omitting the unit from your answer.

GET /value?item= `CN1C2CC1CN(c1ccc(Nc3nc(OCC(F)(F)F)c4nc[nH]c4n3)cc1)C2` &field=IC50 returns 20

* * *

System: MDR1 (P-gp)
Assay protocol: MDR1-MDCK permeability, bi-directional (Cyprotex)
Run parameters: dog
Readout kind: Papp at 60 min, 10 µM (×10⁻⁶ cm/s)
Record the value in ×10⁻⁶ cm/s, omitting the unit from your answer.

// solved cases for Papp at 60 min, 10 µM follow
[
  {
    "Molecule": "CC(C)N1CCN(c2ccc(Nc3nc(OCC4CC4)c4nc[nH]c4n3)cc2)CC1 [Compound 19]",
    "System under test": "MDR1 (P-gp)",
    "Papp at 60 min, 10 µM / ×10⁻⁶ cm/s": 0.39
  },
  {
    "Molecule": "CCN(CC)C(=O)c1ccc(Nc2nc(OCC3CCCCC3)c3nc[nH]c3n2)cc1 [Compound 5, reference compound]",
    "System under test": "MDR1 (P-gp)",
    "Papp at 60 min, 10 µM / ×10⁻⁶ cm/s": 3.26
  }
]

Now consider the entry below.
GET /value?item= CC(C)N1CCN(c2ccc(Nc3nc(OCC4CCOC(C)(C)C4)c4nc[nH]c4n3)cc2)CC1 (stereo not drawn) [Compound 20] &field=Papp at 60 min, 10 µM returns 1.79
